Data credit: the supplement of paper PMC10266784

B1: library; numbered along this chain (parent)
chain: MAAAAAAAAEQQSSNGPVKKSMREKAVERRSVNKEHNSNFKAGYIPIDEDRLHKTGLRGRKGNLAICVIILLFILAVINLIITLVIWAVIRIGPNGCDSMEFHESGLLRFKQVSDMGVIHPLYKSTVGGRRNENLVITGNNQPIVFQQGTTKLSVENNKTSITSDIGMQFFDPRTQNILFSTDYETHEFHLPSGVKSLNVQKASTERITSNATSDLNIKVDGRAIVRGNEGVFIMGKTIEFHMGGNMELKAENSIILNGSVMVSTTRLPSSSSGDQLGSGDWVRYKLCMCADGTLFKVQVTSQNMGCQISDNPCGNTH

variants of: B1; experiment: SGCB cell-surface expression functional score (HA stain, bin4 vs bin1, normalised to synonymous) (log10 ratio); higher = more cell-surface SGCB (functional)
Response key: TRUE means SGCB cell-surface expression functional score (log10) >= -0.09; FALSE means SGCB cell-surface expression functional score (log10) < -0.09.

Solved cases (5 shown):
K250Q | TRUE
M100T | FALSE
I225K | TRUE
I90N | TRUE
L122I | TRUE

API: above_or_equal(metric=SGCB cell-surface expression functional score (log10), cutoff=-0.09) for item `G315T` TRUE

Record `R223P` ; criterion: SGCB cell-surface expression functional score (log10) no lower than -0.09. Met? TRUE

Test whether the variant `I256V` records SGCB cell-surface expression functional score (log10) of -0.09 or higher. TRUE

Does SGCB cell-surface expression functional score (log10) meet or surpass -0.09 for `H103Q` ? TRUE

Can `E49P` be said to have SGCB cell-surface expression functional score (log10) at or above -0.09? TRUE

// inclusive: SGCB cell-surface expression functional score (log10) at least -0.09? input: `E252F` TRUE

Say whether `R223N` shows SGCB cell-surface expression functional score (log10) of -0.09 or more. TRUE

Is SGCB cell-surface expression functional score (log10) at least -0.09? Consider `I137T` FALSE

Confirm if SGCB cell-surface expression functional score (log10) reported for the variant `P121Y` is -0.09 or above. FALSE

Hello, I need to know if `D50M` has measured SGCB cell-surface expression functional score (log10) not below -0.09. Thanks! TRUE

Answer whether SGCB cell-surface expression functional score (log10) of `K202R` is greater than or equal to -0.09. TRUE

In plain terms: is recorded SGCB cell-surface expression functional score (log10) at least -0.09 for `S193C` ? TRUE

Evaluate `S99Q` : SGCB cell-surface expression functional score (log10) at minimum -0.09? FALSE

Threshold query (SGCB cell-surface expression functional score (log10) >= -0.09) on `R174G` FALSE

Can `N246Y` be said to have SGCB cell-surface expression functional score (log10) at or above -0.09? TRUE

Exam item: decide whether the reported SGCB cell-surface expression functional score (log10) for `I45K` is at least -0.09. FALSE

Item `W87Q` with SGCB cell-surface expression functional score (log10) of -0.09 or above? TRUE

Is the recorded value of SGCB cell-surface expression functional score (log10) equal to or greater than -0.09 for this variant? `F110T` FALSE
